# TARGET UNDER TEST: T1, BMPRIa receptor-Fc fusion (UniProt P36894 24-152, limits assumed)
# T1 construct: also called ALK-3
# T1 sequence (P36894 24-152 limits assumed): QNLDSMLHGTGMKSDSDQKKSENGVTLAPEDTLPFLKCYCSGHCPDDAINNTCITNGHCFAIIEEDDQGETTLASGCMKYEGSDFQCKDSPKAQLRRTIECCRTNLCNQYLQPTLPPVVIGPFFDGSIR
# MEASUREMENT DESCRIPTION: ELISA-like plate assay, captured BMP-7 from conditioned media, receptor-Fc detection
OUTCOME MEASURE: BMPRIa binding (relative to wild type = 1.0)

BINDER	VALUE
BMP-7 variant F117K (ligand, In conditioned media; numbering on mature BMP-7) STGGKQRSQNRSKTPKNQEALRMASVAENSSSDQRQACKKHELYVSFRDLGWQDWIIAPEGYAAYYCEGECAFPLNSYMNATNHAIVQTLVHFINPETVPKPCCAPTQLNAISVLYKDDSSNVILKKYRNMVVRACGCH	0.43 relative to wild type
BMP-7 variant F93G (ligand, In conditioned media; numbering on mature BMP-7) STGGKQRSQNRSKTPKNQEALRMASVAENSSSDQRQACKKHELYVSFRDLGWQDWIIAPEGYAAYYCEGECAFPLNSYMNATNHAIVQTLVHGINPETVPKPCCAPTQLNAISVLYFDDSSNVILKKYRNMVVRACGCH	0.6 relative to wild type
BMP-7 variant S77T (ligand, In conditioned media; numbering on mature BMP-7) STGGKQRSQNRSKTPKNQEALRMASVAENSSSDQRQACKKHELYVSFRDLGWQDWIIAPEGYAAYYCEGECAFPLNTYMNATNHAIVQTLVHFINPETVPKPCCAPTQLNAISVLYFDDSSNVILKKYRNMVVRACGCH	0.77 relative to wild type

The binder listed as BMP-7 variant N76Y (ligand, In conditioned media; numbering on mature BMP-7) STGGKQRSQNRSKTPKNQEALRMASVAENSSSDQRQACKKHELYVSFRDLGWQDWIIAPEGYAAYYCEGECAFPLYSYMNATNHAIVQTLVHFINPETVPKPCCAPTQLNAISVLYFDDSSNVILKKYRNMVVRACGCH shows BMPRIa binding (relative to wild type = 1.0) equal to 0.46 relative to wild type
